B1: HDV Ribozyme (parent)
chain: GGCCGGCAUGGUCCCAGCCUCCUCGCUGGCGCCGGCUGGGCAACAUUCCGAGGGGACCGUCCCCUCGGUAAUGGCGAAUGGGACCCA

- Variants of: B1
- measurementNotes: self-cleavage, relative activity (ratio to wild type); higher = more cleavage; co-transcriptional
Classification field: enter 1 for self-cleavage values not below 0.2, -1 for values below it.

[[record]]
mutant = "C57A U65G"
classification = 1

[[record]]
mutant = "G68C G80C"
classification = 1

[[record]]
mutant = "A8G C41A"
classification = 1

[[record]]
mutant = "G39U U65G"
classification = 1

[[record]]
mutant = "C14G C63U"
classification = 1

[[record]]
mutant = "G6U A78U"
classification = -1

[[record]]
mutant = "G25U C64G"
classification = -1

[[record]]
mutant = "A56U U79A"
classification = 1

[[record]]
mutant = "G53C G73C"
classification = 1

[[record]]
mutant = "C41G U46A"
classification = 1

[[record]]
mutant = "U27C A51G"
classification = 1

[[record]]
mutant = "U9G U46A"
classification = 1

[[record]]
mutant = "C41A G53A"
classification = 1

[[record]]
mutant = "C33U G34A"
classification = 1

[[record]]
mutant = "C36G G52U"
classification = -1

[[record]]
mutant = "C22A U47C"
classification = -1

[[record]]
mutant = "U20A G25U"
classification = -1

[[record]]
mutant = "C32U C33A"
classification = -1

[[record]]
mutant = "C4U U69A"
classification = 1

[[record]]
mutant = "C63U U72C"
classification = 1

[[record]]
mutant = "G10C A43C"
classification = 1

[[record]]
mutant = "C21A G28C"
classification = -1

[[record]]
mutant = "G2U G59A"
classification = -1

[[record]]
mutant = "G35U A43U"
classification = 1

[[record]]
mutant = "C62G C84G"
classification = 1

[[record]]
mutant = "U46A G81A"
classification = 1

[[record]]
mutant = "G53U A77C"
classification = 1

[[record]]
mutant = "A8C C48A"
classification = 1

[[record]]
mutant = "G50A U79A"
classification = 1

[[record]]
mutant = "C14A A51U"
classification = 1

[[record]]
mutant = "C15U U27G"
classification = 1

[[record]]
mutant = "G1C C66G"
classification = -1

[[record]]
mutant = "C7G C64G"
classification = -1

[[record]]
mutant = "G2C A78G"
classification = -1

[[record]]
mutant = "G5A C66G"
classification = 1

[[record]]
mutant = "G39A A78C"
classification = -1

[[record]]
mutant = "G10U C75A"
classification = -1

[[record]]
mutant = "C24G C32A"
classification = -1

[[record]]
mutant = "U37A C75U"
classification = -1

[[record]]
mutant = "G52U A71U"
classification = 1

[[record]]
mutant = "G28A G80U"
classification = -1

[[record]]
mutant = "G34A G76A"
classification = 1

[[record]]
mutant = "U37G A78U"
classification = -1

[[record]]
mutant = "G1C C64A"
classification = 1

[[record]]
mutant = "C33U U79C"
classification = 1

[[record]]
mutant = "G29C U60C"
classification = -1

[[record]]
mutant = "G54A C66U"
classification = 1

[[record]]
mutant = "G53A A70G"
classification = 1

[[record]]
mutant = "G39C U72C"
classification = -1

[[record]]
mutant = "C58A G80C"
classification = -1

[[record]]
mutant = "G2C G68U"
classification = -1

[[record]]
mutant = "G55A U69C"
classification = 1

[[record]]
mutant = "A8C G76A"
classification = 1

[[record]]
mutant = "G81C C86U"
classification = 1

[[record]]
mutant = "G10C C24G"
classification = -1

[[record]]
mutant = "G29A A83U"
classification = 1

[[record]]
mutant = "C30A G74U"
classification = 1

[[record]]
mutant = "G55C U69G"
classification = 1

[[record]]
mutant = "C33G C58G"
classification = -1

[[record]]
mutant = "C15G A71U"
classification = 1

[[record]]
mutant = "G50C G59C"
classification = 1

[[record]]
mutant = "G35U G50A"
classification = 1

[[record]]
mutant = "C15U U47A"
classification = 1

[[record]]
mutant = "G52A C85A"
classification = 1

[[record]]
mutant = "G2A G81C"
classification = -1

[[record]]
mutant = "U46G C75U"
classification = -1

[[record]]
mutant = "C4U G34U"
classification = 1

[[record]]
mutant = "G53C G55U"
classification = 1

[[record]]
mutant = "G6A C64U"
classification = 1

[[record]]
mutant = "A77G A83U"
classification = 1

[[record]]
mutant = "C58A G73U"
classification = 1

[[record]]
mutant = "C62U G67A"
classification = 1

[[record]]
mutant = "U69G G73A"
classification = 1

[[record]]
mutant = "G52U C61A"
classification = 1

[[record]]
mutant = "C49U G55U"
classification = 1

[[record]]
mutant = "C21U G73C"
classification = -1

[[record]]
mutant = "C4G C26G"
classification = 1

[[record]]
mutant = "G39C G52A"
classification = 1

[[record]]
mutant = "G25C G50C"
classification = -1

[[record]]
mutant = "G55A G73A"
classification = 1

[[record]]
mutant = "C32U A83U"
classification = 1

[[record]]
mutant = "G2U U69C"
classification = -1

[[record]]
mutant = "C36A C41A"
classification = -1

[[record]]
mutant = "C3A U37C"
classification = 1

[[record]]
mutant = "U37G C57U"
classification = -1

[[record]]
mutant = "G1U G6U"
classification = 1

[[record]]
mutant = "C36U C57A"
classification = 1

[[record]]
mutant = "U60C G74U"
classification = 1

[[record]]
mutant = "C24G C26G"
classification = 1

[[record]]
mutant = "C26U G52C"
classification = 1

[[record]]
mutant = "C14A G52U"
classification = 1

